Target: SHP2 (Homo sapiens)
Construct: SHP2, residues 224-528; made in house; host or cells: E. coli BL21(DE3)
Sequence (Q06124 224-528): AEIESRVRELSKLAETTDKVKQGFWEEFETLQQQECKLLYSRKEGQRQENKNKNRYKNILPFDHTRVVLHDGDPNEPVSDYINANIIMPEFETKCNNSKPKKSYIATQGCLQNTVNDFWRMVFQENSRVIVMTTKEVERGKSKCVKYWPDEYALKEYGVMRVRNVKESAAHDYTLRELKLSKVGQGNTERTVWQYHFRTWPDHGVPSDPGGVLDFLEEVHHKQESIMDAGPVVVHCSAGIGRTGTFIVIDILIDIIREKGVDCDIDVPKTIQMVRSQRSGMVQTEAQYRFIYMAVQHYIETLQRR
Experiment: IC50 after preincubation, DiFMUP phosphatase assay
Type: biochemical
Conditions: 60-min preincubation; read-out: 60 min IC50, SHP2
PROPERTY: IC50

• N#Cc1ccsc1NS(=O)(=O)c1ccc(NC(=O)CCl)cc1 [M029] = 58.2 µM

====

target: SHP1 (Homo sapiens, UniProt P29350); construct: SHP1, residues 245-543; made in house; host or cells: E. coli BL21(DE3); test: IC50 after 10-min/60-min preincubation, DiFMUP phosphatase assay; format: biochemical; conditions: resynthesized compound, 60 min preincubation; read-out: SHP1 IC50, 60 min preincubation
Sequence (P29350 245-543): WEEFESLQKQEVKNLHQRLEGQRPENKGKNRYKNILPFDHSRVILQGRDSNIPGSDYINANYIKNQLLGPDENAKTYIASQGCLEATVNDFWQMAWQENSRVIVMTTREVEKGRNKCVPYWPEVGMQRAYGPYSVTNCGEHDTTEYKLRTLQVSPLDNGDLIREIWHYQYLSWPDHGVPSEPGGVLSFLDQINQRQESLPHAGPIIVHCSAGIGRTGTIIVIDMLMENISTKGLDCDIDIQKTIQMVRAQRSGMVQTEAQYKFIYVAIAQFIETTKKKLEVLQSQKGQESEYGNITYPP
PROPERTY: IC50

- O=C(CCl)Nc1ccc(S(=O)(=O)Nc2nccs2)cc1 [Z57117023]: 25.2 µM

====

biological target: SHP1 (Homo sapiens); construct: SHP1, residues 245-543; made in house; host or cells: E. coli BL21(DE3); assay: IC50 after 10-min/60-min preincubation, DiFMUP phosphatase assay; type: biochemical; details: resynthesized compound, 10 min preincubation; read-out: SHP1 IC50, 10 min preincubation
pIC50: −log10 of the molar value.
PROPERTY: pIC50

• O=C(CCl)Nc1ccc(S(=O)(=O)Nc2nccs2)cc1 [Z57117023] = 3.93

====

molecular target: PTPN22 (Homo sapiens, UniProt Q9Y2R2); construct: LYP/PTPN22, residues 1-294; made in house; host or cells: E. coli BL21(DE3); assay: IC50 after preincubation, DiFMUP phosphatase assay; assay type: biochemical; conditions: 60-min preincubation; read-out: PTPN22 IC50, 60 min
Sequence (Q9Y2R2 1-294, species assumed): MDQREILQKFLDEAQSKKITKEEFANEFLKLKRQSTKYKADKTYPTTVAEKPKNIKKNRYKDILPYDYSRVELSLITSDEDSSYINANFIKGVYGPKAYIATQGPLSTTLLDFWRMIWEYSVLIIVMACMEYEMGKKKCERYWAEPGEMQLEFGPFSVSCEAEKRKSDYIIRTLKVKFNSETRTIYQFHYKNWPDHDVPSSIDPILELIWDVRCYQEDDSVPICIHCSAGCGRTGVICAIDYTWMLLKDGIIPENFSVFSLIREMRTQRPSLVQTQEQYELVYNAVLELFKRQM
pIC50: −log10 of the molar value.
PROPERTY: pIC50

* O=C(CCl)Nc1ccc(S(=O)(=O)Nc2nccs2)cc1 [Z57117023] | < 3.70

====

test: Pharmacokinetics in mice; format: in vivo, C57BL/6 mice; settings: female, C57BL/6, mouse, plasma, 25 mg/kg oral, read-out: t1/2, oral
PROPERTY: half-life (min)

- N#Cc1ccsc1NS(=O)(=O)c1ccc(NC(=O)CCl)cc1: 38.5

====

Target: FAP1 (Homo sapiens, UniProt Q12923)
Sequence (Q12923 2124-2485): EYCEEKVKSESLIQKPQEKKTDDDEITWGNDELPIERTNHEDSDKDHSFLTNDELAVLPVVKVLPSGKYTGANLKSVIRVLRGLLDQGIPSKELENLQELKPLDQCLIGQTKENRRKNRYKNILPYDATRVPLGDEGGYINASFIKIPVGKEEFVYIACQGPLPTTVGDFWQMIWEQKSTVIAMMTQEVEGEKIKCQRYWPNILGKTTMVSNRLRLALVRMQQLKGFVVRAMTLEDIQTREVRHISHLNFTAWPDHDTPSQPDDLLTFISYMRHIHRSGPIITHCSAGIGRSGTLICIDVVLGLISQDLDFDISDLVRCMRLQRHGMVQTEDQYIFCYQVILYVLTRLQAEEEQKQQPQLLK
pIC50: −log10 of the molar value.
PROPERTY: pIC50

- N#Cc1ccsc1NS(=O)(=O)c1ccc(NC(=O)CCl)cc1: < 3.70

====

target: SHP1 (Homo sapiens, UniProt P29350); construct: SHP1, residues 245-543; made in house; host or cells: E. coli BL21(DE3); assay: IC50 after 10-min/60-min preincubation, DiFMUP phosphatase assay; type: biochemical; settings: 60-min preincubation; purchased hits; read-out: SHP1 IC50, 60 min
PROPERTY: IC50 (µM)

• O=C(CCl)Nc1ccc(S(=O)(=O)Nc2nccs2)cc1 [Z57117023] = 17.5

====

molecular target: SHP2 (Homo sapiens, UniProt Q06124); construct: SHP2, residues 224-528; made in house; host or cells: E. coli BL21(DE3); test: IC50 after preincubation, DiFMUP phosphatase assay; assay type: biochemical; conditions: 60-min preincubation; read-out: SHP2 IC50, 60 min
pIC50: −log10 of the molar value.
PROPERTY: pIC50

* O=C(CCl)Nc1ccc(S(=O)(=O)Nc2nccs2)cc1 | < 3.70

====

molecular target: LMPTP (Homo sapiens, UniProt P24666)
Sequence (P24666 whole entry): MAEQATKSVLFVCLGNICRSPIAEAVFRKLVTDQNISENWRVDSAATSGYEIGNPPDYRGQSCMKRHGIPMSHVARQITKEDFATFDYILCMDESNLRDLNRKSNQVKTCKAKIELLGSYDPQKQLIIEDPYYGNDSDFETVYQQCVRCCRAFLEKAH
pIC50: −log10 of the molar value.
PROPERTY: pIC50

* N#Cc1ccsc1NS(=O)(=O)c1ccc(NC(=O)CCl)cc1 | < 3.70

====

target: HePTP (Homo sapiens, UniProt P35236)
Sequence (P35236 22-360): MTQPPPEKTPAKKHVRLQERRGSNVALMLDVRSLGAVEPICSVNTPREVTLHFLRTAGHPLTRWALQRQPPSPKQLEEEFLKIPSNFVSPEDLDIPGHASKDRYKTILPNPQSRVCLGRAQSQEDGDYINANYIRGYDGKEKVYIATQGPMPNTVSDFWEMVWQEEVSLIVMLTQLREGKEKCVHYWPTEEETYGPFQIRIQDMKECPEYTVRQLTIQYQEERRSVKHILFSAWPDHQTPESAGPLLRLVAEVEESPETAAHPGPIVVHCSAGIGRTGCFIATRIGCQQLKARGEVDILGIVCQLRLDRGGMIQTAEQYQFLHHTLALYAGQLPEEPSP
PROPERTY: IC50

• N#Cc1ccsc1NS(=O)(=O)c1ccc(NC(=O)CCl)cc1 [M029] = > 200 µM

====

Biological target: PEST (Homo sapiens, UniProt Q05209)
Sequence (Q05209 5-304): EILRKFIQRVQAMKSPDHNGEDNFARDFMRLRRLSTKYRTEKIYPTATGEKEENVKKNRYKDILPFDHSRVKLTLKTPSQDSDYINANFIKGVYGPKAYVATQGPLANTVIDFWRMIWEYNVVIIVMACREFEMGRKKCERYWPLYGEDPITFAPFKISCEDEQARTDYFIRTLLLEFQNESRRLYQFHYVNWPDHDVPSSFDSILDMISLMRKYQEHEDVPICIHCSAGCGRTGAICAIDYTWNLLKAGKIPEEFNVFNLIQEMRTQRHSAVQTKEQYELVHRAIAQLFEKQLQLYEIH
pIC50: −log10 of the molar value.
PROPERTY: pIC50

* N#Cc1ccsc1NS(=O)(=O)c1ccc(NC(=O)CCl)cc1 | < 3.70

====

biological target: PTPN22 (Homo sapiens); construct: LYP/PTPN22, residues 1-294; made in house; host or cells: E. coli BL21(DE3); assay: IC50 after preincubation, DiFMUP phosphatase assay; format: biochemical; details: 10-min preincubation; read-out: PTPN22 IC50, 10 min
PROPERTY: IC50

• O=C(CCl)Nc1ccc(S(=O)(=O)Nc2nccs2)cc1 = > 200 µM

====

Target: PTP1B (Homo sapiens)
Construct: PTP1B, residues 1-321; made in house; host or cells: E. coli BL21(DE3)
Sequence (P18031 1-321): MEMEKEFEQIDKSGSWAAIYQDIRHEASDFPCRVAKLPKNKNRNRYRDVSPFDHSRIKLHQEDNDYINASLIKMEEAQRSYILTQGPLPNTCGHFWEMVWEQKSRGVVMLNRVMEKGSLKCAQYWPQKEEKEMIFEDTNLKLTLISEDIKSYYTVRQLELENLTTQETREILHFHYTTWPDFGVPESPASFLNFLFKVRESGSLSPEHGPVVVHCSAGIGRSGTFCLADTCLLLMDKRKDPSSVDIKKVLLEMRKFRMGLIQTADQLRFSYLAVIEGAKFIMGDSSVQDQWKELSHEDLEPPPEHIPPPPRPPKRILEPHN
Assay: IC50 after preincubation, DiFMUP phosphatase assay
Assay type: biochemical
Details: column headed 60 min (c7); read-out: PTP1B IC50, 60 min
PROPERTY: IC50

* O=C(CCl)Nc1ccc(S(=O)(=O)Nc2nccs2)cc1 [Z57117023] | > 200 µM

====

biological target: SHP2 (Homo sapiens); construct: SHP2, residues 224-528; made in house; host or cells: E. coli BL21(DE3); assay: IC50 after preincubation, DiFMUP phosphatase assay; format: biochemical; details: 10-min preincubation; read-out: SHP2 IC50, 10 min
pIC50: −log10 of the molar value.
PROPERTY: pIC50

• O=C(CCl)Nc1ccc(S(=O)(=O)Nc2nccs2)cc1 = < 3.70

====

Test: Pharmacokinetics in mice
Assay type: in vivo, C57BL/6 mice
Details: female, C57BL/6, mouse, plasma, po, 25 mg/kg, read-out: oral bioavailability (%F)
Description: Given M029's superb potency, selectivity, and target engagement, we considered that these desirable attributes make it a powerful chemical probe for interrogating the roles of SHP1 in biological processes and a promising lead for further development into an SHP1‐targeted therapy. […] To that end, we determined the pharmacokinetic (PK) properties of M029 in mice by administrating the compound via intraperitoneal (IP), intravenous (IV), and oral (PO) routes at a concentration of 25 mg/kg (Figure S4). […]
PROPERTY: bioavailability (%)

* N#Cc1ccsc1NS(=O)(=O)c1ccc(NC(=O)CCl)cc1 | 18
